B1: glmS ribozyme (parent)
chain: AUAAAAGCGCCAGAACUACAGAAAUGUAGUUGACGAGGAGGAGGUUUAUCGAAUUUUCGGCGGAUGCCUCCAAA

# Variants of: B1
# assay-comment: self-cleavage kobs at 2500 uM GlcN6P; higher = faster cleavage; RNA array
# measurement-setup: with glucosamine-6-phosphate
Variants at the floor of the assay were thinned out.
We use 0.0002 s⁻¹ as the dividing line for self-cleavage kobs at 2500 uM GlcN6P: on or above the line is class 1, below is class 0.

Answered cases to consult:
C8U A42C    class 0
U31G U54G C67G C68A C70G    class 1
A14C G21U G26U A36C    class 0
G41A A48U U57C G60A C61U C67U C71G    class 0
G7U C50G    class 1
A23C C70A    class 1
G13U U30G G35C    class 0
G32C C50G U55A U56G U57C    class 0

**Q:** In plain terms: is recorded self-cleavage kobs at 2500 uM GlcN6P at least 0.0002 s⁻¹ for C8U C16A G62U ?
**A:** class 0

**Q:** In plain terms: is recorded self-cleavage kobs at 2500 uM GlcN6P at least 0.0002 s⁻¹ for A14C U31G ?
**A:** class 1
